Molecular target: D(2) dopamine receptor (Homo sapiens) (UniProt P14416)
Sequence (P14416 whole entry): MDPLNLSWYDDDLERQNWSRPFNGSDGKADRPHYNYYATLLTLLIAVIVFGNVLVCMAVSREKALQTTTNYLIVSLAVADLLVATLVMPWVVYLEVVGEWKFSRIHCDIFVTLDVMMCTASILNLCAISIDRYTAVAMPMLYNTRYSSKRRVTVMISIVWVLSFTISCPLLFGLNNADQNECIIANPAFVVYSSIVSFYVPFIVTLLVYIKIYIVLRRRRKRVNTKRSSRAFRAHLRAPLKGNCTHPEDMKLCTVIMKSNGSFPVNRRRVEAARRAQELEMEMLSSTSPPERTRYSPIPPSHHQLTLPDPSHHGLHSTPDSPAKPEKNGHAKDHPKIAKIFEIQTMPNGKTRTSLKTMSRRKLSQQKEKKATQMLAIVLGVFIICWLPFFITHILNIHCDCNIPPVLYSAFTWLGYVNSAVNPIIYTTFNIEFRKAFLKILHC
Test: Negative allosteric modulation of recombinant human D2L receptor expressed in Flp-In CHO cells assessed as inhibition of dopamine-induced reduction in forskolin stimulated cAMP accumulation by measuring co-operativity factor preincubated for 30 mins followed by forskolin stimulation and measured after 30 mins by BRET assay
Format: functional, cell-based
List of Activity values.

Solved entries:
FC(F)(F)c1cccc(Nc2nc(CCN3CCOCC3)nc3sc4c(c23)CCCC4)c1: 0.23
FC(F)(F)c1cccc(Nc2ncnc3sccc23)c1: 0.37
CCN(CC)c1nc(CN2CCOCC2)nc2sc3c(c12)CCCC3: 0.68
CCN(CC)c1nc(CN2CCOCC2)nc2sccc12: 0.08

Would you kindly look at the next entry?
q: Find the recorded Activity belonging to FC(F)(F)c1cccc(Nc2nc(CCCCN3CCOCC3)nc3sccc23)c1 and report it.
a: 0.13

* * *

Biological target: D(3) dopamine receptor (Homo sapiens) (UniProt P35462)
Sequence (P35462 whole entry): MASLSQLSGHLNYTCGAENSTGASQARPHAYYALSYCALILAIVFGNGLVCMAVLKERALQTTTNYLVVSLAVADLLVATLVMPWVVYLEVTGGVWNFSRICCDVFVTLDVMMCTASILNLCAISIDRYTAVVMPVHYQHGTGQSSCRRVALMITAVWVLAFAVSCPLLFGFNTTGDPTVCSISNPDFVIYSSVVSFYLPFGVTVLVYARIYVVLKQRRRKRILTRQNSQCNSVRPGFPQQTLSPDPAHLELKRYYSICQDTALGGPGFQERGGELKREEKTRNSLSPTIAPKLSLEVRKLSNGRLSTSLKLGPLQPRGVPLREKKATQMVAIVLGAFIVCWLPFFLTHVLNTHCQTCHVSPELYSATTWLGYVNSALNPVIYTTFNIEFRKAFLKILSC
Test: Displacement of [3H]Raclopride from recombinant D3 receptor (unknown origin) expressed in Flp-In CHO cell membranes after 2 to 3 hrs by microbeta counting method
Rule: Fulfilled for pKb not less than 5, Not fulfilled for anything less.

q: Quick check: does FC(F)(F)c1cccc(Nc2ncnc3sc4c(c23)CCCC4)c1 have pKb greater than or equal to 5?
a: Fulfilled

* * *

Listed below: Kb values for each entry.
Biological target: D(2) dopamine receptor (Homo sapiens)
Test: Displacement of [3H]Raclopride from recombinant human D2L receptor expressed in Flp-In CHO cell membranes after 2 to 3 hrs by microbeta counting method
Numeric only. Scale: µM

Field: example entries. Status: answers known.
FC(F)(F)c1cccc(Nc2nc(CN3CCOCC3)nc3sc4c(c23)CCCC4)c1: 16.6
CCN(CC)c1nc(CCCCN2CCOCC2)nc2sc3c(c12)CCCC3: 16
CCN(CC)c1nc(CC2CCOCC2)nc2sc3c(c12)CCCC3: 35
FC(F)(F)c1cccc(Nc2ncnc3sccc23)c1: 63
FC(F)(F)c1cccc(Nc2nc(CCCCN3CCOCC3)nc3sc4c(c23)CCCC4)c1: 3.31
FC(F)(F)c1cccc(Nc2nc(CC3CCOCC3)nc3sc4c(c23)CCCC4)c1: 100
CCN(CC)c1nc(CCCCN2CCOCC2)nc2sccc12: 3
CCN(CC)c1nc(CN2CCOCC2)nc2sccc12: 1.3
CNc1nc(CN2CCOCC2)nc2sc3c(c12)CCCC3: 53
FC(F)(F)c1cccc(Nc2ncnc3sc4c(c23)CCCC4)c1: 31

Lab note: next molecule to report on.
q: Please give the measured Kb for this molecule: FC(F)(F)c1cccc(Nc2nc(CCCCN3CCOCC3)nc3sccc23)c1
a: 19

* * *

Molecular target: UniProt:P14416
Assay: Negative allosteric modulation of recombinant human D2L receptor expressed in Flp-In CHO cells assessed as inhibition of dopamine-induced reduction in forskolin stimulated cAMP accumulation by measuring co-operativity factor preincubated for 30 mins followed by forskolin stimulation and measured after 30 mins by BRET assay
Assay type: functional, cell-based
Please assign False whenever log(activity) is at or above -0.5, and True whenever it is below.

q: Determine if CCN(CC)c1nc(CCCCN2CCOCC2)nc2sccc12 shows log(activity) strictly lower than -0.5.
a: True

q: Given Oc1cccc(Nc2nc(CN3CCOCC3)nc3sc4c(c23)CCCC4)c1 , is recorded log(activity) strictly lower than -0.5?
a: True

q: Is the reported log(activity) for CCN(CC)c1nc(CN2CCOCC2)nc2sccc12 strictly below -0.5?
a: True

q: Strictly below -0.5: is that where log(activity) of CN(C)c1nc(CN2CCOCC2)nc2sc(Cc3ccccc3)cc12 sits?
a: False
